- SYSTEM: human FAAH (Homo sapiens, UniProt O00519)
- Sequence (O00519 1-579): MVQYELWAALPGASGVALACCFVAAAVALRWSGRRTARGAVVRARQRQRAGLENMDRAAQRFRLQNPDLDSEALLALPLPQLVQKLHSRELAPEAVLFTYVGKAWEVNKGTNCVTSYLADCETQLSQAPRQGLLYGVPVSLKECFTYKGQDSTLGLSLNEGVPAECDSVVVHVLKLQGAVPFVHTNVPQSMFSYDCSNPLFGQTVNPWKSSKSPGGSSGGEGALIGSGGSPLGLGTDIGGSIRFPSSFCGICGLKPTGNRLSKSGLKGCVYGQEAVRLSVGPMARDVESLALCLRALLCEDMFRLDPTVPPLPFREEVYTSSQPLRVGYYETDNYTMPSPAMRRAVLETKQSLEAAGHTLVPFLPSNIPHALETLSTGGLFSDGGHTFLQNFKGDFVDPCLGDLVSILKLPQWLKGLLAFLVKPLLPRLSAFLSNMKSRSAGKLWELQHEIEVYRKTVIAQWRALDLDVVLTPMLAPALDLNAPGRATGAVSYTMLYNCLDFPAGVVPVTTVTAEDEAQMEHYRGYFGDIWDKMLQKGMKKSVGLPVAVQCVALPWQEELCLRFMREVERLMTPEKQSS
PARAMETER_MEASURED: Ki

Example cases with answers are listed next.
{"columns": ["COMPOUND", "Ki"],
 "data": [
  ["CC(C)(C)OC(=O)N1CCC[C@@]2(CC(Br)=NO2)C1 [III-10a]", "≥ 1000 nM"],
  ["Clc1ccc(CN2CCC3(CC2)CC(Oc2cncnc2)=NO3)cc1", "≤ 100 nM"],
  ["CC(C)(C)OC(=O)N1CCC[C@@]2(CC1)CC(Br)=NO2 [III-12a]", "≤ 100 nM"],
  ["O=C(CCCC(F)(F)F)N1CCC2(CC1)CC(Oc1cncnc1)=NO2", "≥ 1000 nM"],
  ["BrC1=NOC2(CCN(Cc3ccccc3)CC2)C1", "≤ 100 nM"],
  ["BrC1=NO[C@]2(CCc3cc(Oc4ccccc4)ccc32)C1 [III-63a]", "≤ 100 nM"],
  ["BrC1=NOC2(CCN(Cc3cccnc3)CC2)C1", "100 to 1000 nM"],
  ["CC(C)(C)CN1CCC2(CC1)CC(Br)=NO2", "100 to 1000 nM"],
  ["FC(F)(F)Oc1ccc2c(c1)CC[C@]21CC(Oc2cncc(-c3nnco3)c2)=NO1 [III-73b]", "≤ 100 nM"],
  ["CC(C)(C)OC(=O)N1CCC[C@]2(CC(Br)=NO2)C1 [III-10b]", "≥ 1000 nM"]
]}

Go through the items and report each one's Ki.
1. CC(C)(C)OC(=O)N1CCC[C@]2(CC1)CC(Br)=NO2 [III-12b]
2. BrC1=NO[C@]2(CC[C@@H](COc3ccccc3)CC2)C1
3. BrC1=NOC2(CCNCC2)C1
4. CSc1ccc(OC2=NO[C@@]3(CCc4cc(OC(F)(F)F)ccc43)C2)cn1 [III-67b]
5. O=C(OCC(Cl)(Cl)Cl)N1CCC2(CC1)CC(Br)=NO2
6. CC(C)(C)OC(=O)N1CC[C@@]2(CC(Br)=NO2)C1 [III-11a]
7. O=C(c1ccc(Cl)cc1)N1CCC2(CC1)CC(Oc1cncnc1)=NO2
8. BrC1=NOC2(CCN(Cc3ccccn3)CC2)C1

Completion:
["≤ 100 nM", "≤ 100 nM", "≥ 1000 nM", "≤ 100 nM", "100 to 1000 nM", "100 to 1000 nM", "≤ 100 nM", "100 to 1000 nM"]
